These entries and their values trace back to patent US10131651B2.

# experimental_target: human GPR40 (Homo sapiens (Human), UniProt O14842)
# Sequence (O14842 whole entry): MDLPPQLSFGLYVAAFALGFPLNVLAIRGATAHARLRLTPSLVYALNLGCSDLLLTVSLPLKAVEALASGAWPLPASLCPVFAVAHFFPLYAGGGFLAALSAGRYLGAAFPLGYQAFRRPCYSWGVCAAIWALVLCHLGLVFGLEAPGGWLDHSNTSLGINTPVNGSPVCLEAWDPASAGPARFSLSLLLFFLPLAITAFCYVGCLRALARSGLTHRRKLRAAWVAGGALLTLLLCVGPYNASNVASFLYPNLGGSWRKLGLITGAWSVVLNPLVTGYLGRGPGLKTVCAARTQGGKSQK
# test_summary: Inositol Phosphate Turnover (IP1) Assay
# measurement_setup: HEK cells stably expressing human GPR40
# Procedure: Human and mouse GPR40 stable cell-lines were generated in CHO cells stably expressing NFAT BLA (Beta-lactamase). A human GPR40 stable cell-line was generated in HEK cells stably expressing the acquorin expressing reporter. […] Measurement of Inositol Phosphate Turnover (IP1) is performed using the CisBio IP-One kit (Part number 62IPAPEB). […] The plates are then read in a Perkin Elmer EnVision or equivalent reader able to measure FRET. […]
Let's look at some molecules and their measured log10(EC50).
Use the decimal logarithm of EC50 (nM).

In: Look up log10(EC50) for this molecule: COc1cc(-c2ccc(C3CCCc4ccc([C@H](C5CC5)[C@H](C)C(=O)O)cc4O3)nc2)c(F)cn1 (mixture of isomers) [Example 7]
Out: 0.48

In: Repeat with C[C@H](C(=O)O)[C@H](c1ccc2c(c1)OC(C1CN(Cc3cc(C(F)(F)F)ccc3C(F)(F)F)C1)CCC2)C1CC1 (single isomer, unassigned) [Example 3]
Out: 1.11

----------
# experimental_target: human GPR40 (Homo sapiens (Human))
# test_summary: Inositol Phosphate Turnover (IP1) Assay
# measurement_setup: HEK cells stably expressing human GPR40
I'd appreciate it if you marked entries rule met when EC50 is lower than 6 nM and rule not met when it is not.

These recorded examples may help you get a feel for the data.
INSERT INTO measurements (compound, discrete_label) VALUES
  ('COc1cc(-c2cnc(C3CCCc4ccc([C@H](C5CC5)[C@H](C)C(=O)O)cc4O3)cn2)c(F)cn1 (single isomer, unassigned) [Example 13]', 'rule not met'),
  ('COc1cc(-c2ccc(C3CCCc4ccc([C@H](C5CC5)[C@H](C)C(=O)O)cc4O3)c(F)c2)ccn1 (single isomer, unassigned) [Example 1]', 'rule met'),
  ('COc1cc(-c2ccc(C3CCCc4ccc([C@H](C5CC5)[C@H](C)C(=O)O)cc4O3)c(F)c2)ccn1 (single isomer, unassigned) [Example 2]', 'rule not met'),
  ('COc1cc(-c2ccc(C3CCCc4ccc([C@H](C5CC5)[C@H](C)C(=O)O)cc4O3)cc2)c(F)cn1 (mixture of isomers) [Example 5]', 'rule met');

In: Please check: EC50 for COc1cc(-c2cnc(C3CCCc4ccc([C@H](C5CC5)[C@H](C)C(=O)O)cc4O3)cn2)c(F)cn1 (single isomer, unassigned) [Example 12] , strictly under 6 nM or not?
Out: rule not met

In: Repeat with COc1ccc(F)c(-c2ccc(C3CCCc4ccc([C@H](C5CCC5)[C@H](C)C(=O)O)cc4O3)cc2)c1 (single isomer, unassigned) [Example 10]
Out: rule met

In: Repeat with C[C@H](C(=O)O)[C@H](c1ccc2c(c1)OC(C1CN(Cc3cc(C(F)(F)F)ccc3C(F)(F)F)C1)CCC2)C1CC1 (single isomer, unassigned) [Example 4]
Out: rule not met

In: Repeat with COc1cc(-c2ccc(C3CCCc4ccc([C@H](C5CC5)[C@H](C)C(=O)O)cc4O3)nc2)c(F)cn1 (single isomer, unassigned) [Example 8]
Out: rule not met

In: Repeat with COc1cc(-c2ccc(C3CCCc4ccc([C@H](C5CC5)[C@H](C)C(=O)O)cc4O3)cc2)c(F)cn1 (single isomer, unassigned) [Example 6]
Out: rule met
